System: Hsp90 in HEPG2 lysate
Conditions: HepG2 lysate, 1.372 nM
Measured parameter: FP signal (raw)

// recorded FP signal (raw) for COc1ccc(CON=C2C=CC=CC3OC3CC(C)OC(=O)c3c(O)cc(O)c(Cl)c3C2)cc1 (mixture of isomers) [compound 224] : 209

// recorded FP signal (raw) for CCNC(=O)c1noc(-c2cc(C(C)C)c(O)cc2O)c1-c1ccc(CN2CCOCC2)cc1 [AUY922, reference compound] : 197

// recorded FP signal (raw) for CC1(C)CC(=O)c2c(C(F)(F)F)nn(-c3ccc(C(N)=O)c(N[C@H]4CC[C@H](O)CC4)c3)c2C1 [SNX-2112, reference compound] : 207

// recorded FP signal (raw) for CC1CC2OC2C=CC=CC(=NOCc2cccc(F)c2)Cc2c(Cl)c(O)cc(O)c2C(=O)O1 (mixture of isomers) [compound 227] : 203

// recorded FP signal (raw) for CCON=C1/C=C/C=C\[C@H]2O[C@H]2C[C@@H](C)OC(=O)c2c(O)cc(O)c(Cl)c2C1 [compound 333] : 195

// recorded FP signal (raw) for COc1ccccc1CON=C1C=CC=CC2OC2CC(C)OC(=O)c2c(O)cc(O)c(Cl)c2C1 (mixture of isomers) [compound 226] : 206

// recorded FP signal (raw) for CC1CC2OC2C=CC=CC(=NOCCN2CCCC2=O)Cc2c(Cl)c(O)cc(O)c2C(=O)O1 (stereo not drawn) [KF58333, reference compound] : 194

// recorded FP signal (raw) for COc1ccc(CON=C2C=CC=CC3OC3CC(C)OC(=O)c3c(O)cc(O)cc3C2)cc1 (stereo not drawn) [CMLD013075] : 207

// recorded FP signal (raw) for CC1CC2OC2C=CC=CC(=NOCc2ccccc2)Cc2c(Cl)c(O)cc(O)c2C(=O)O1 (mixture of isomers) [compound 217] : 202

// recorded FP signal (raw) for CC1(C)CC(=O)c2c(C(F)(F)F)nn(-c3ccc(C(N)=O)c(N[C@H]4CC[C@H](OC(=O)CN)CC4)c3)c2C1 [SNX-5422] : 209

// recorded FP signal (raw) for Cc1ccc(CON=C2C=CC=CC3OC3CC(C)OC(=O)c3c(O)cc(O)c(Cl)c3C2)cc1 (mixture of isomers) [compound 218] : 208

// recorded FP signal (raw) for C[C@@H]1C[C@@H]2O[C@@H]2/C=C\C=C\C(=NOCc2ccccc2Cl)Cc2c(Cl)c(O)cc(O)c2C(=O)O1 [compound 4] : 204

* * *

Task for the reader: assign each of the following compounds its reported FP signal (raw).
Biological target: Hsp90 in C. albicans (SC5314) lysate (Candida albicans)
Construct: endogenous in cells; host or cells: C. albicans SC5314 whole-cell lysate
Sequence (P46598 whole entry): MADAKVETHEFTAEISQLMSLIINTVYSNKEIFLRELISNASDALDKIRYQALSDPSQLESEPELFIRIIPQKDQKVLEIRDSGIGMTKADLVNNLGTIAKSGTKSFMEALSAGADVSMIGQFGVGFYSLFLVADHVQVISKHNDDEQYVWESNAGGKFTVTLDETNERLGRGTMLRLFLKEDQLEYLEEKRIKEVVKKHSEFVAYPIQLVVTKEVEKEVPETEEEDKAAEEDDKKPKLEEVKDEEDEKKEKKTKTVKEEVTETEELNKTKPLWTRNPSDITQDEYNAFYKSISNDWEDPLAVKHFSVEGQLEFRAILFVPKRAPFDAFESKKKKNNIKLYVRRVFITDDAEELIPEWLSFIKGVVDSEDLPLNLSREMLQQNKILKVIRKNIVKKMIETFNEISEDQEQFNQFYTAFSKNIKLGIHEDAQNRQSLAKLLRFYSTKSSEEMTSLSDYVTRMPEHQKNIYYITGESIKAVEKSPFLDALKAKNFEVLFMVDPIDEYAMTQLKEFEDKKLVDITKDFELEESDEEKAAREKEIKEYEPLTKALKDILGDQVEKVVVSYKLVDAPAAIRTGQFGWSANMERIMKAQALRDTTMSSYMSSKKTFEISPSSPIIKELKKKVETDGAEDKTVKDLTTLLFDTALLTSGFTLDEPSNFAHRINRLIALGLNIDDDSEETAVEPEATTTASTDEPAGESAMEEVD
Test: biochemical
Type: binding
Settings: SC5314 lysate, 1.372 nM
Please respond with just the number, no unit label.

// recorded FP signal (raw) for CC1(C)CC(=O)c2c(C(F)(F)F)nn(-c3ccc(C(N)=O)c(N[C@H]4CC[C@H](OC(=O)CN)CC4)c3)c2C1 : 197

// recorded FP signal (raw) for C[C@@H]1C[C@@H]2O[C@@H]2/C=C\C=C\C(=NOCc2ccccc2Cl)Cc2c(Cl)c(O)cc(O)c2C(=O)O1 : 208

// recorded FP signal (raw) for CCON=C1/C=C/C=C\[C@H]2O[C@H]2C[C@@H](C)OC(=O)c2c(O)cc(O)c(Cl)c2C1 : 155

// recorded FP signal (raw) for COc1ccc(CON=C2C=CC=CC3OC3CC(C)OC(=O)c3c(O)cc(O)cc3C2)cc1 (stereo not shown) : 200

The measurements presented in this section are drawn from paper PMC6345968.
